target system: WRKY33 cDBD (Arabidopsis thaliana, UniProt Q8S8P5 345-449)
Sequence (Q8S8P5 other isoform, or with tags, fused parts or gaps): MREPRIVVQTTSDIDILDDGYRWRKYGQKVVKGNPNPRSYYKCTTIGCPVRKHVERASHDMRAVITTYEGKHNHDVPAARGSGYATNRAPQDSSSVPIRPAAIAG
assay method text: DPI-ELISA; DPI-ELISA, streptavidin 384-well plate, 1-2 pmol biotinylated dsDNA per well, crude native E. coli extract, anti-His detection; buffer as in Brand et al. [46],; high values mean tight binding
test context: tags: C-terminal His (pET-DEST42); label: 5' biotin on forward strand
assay endpoint: binding signal

Known binding signal results, listed for orientation:
57 (dsDNA) DNA 1: AAAAAAAATTAGTCTCTTCGTCTCCCAAAA DNA 2: TTTTGGGAGACGAAGAGACTAATTTTTTTT :: 2.01 relative normalized absorbance
276 (dsDNA) DNA 1: AAAAAACATCGCTGTCGTTGACGTTGAAAA DNA 2: TTTTCAACGTCAACGACAGCGATGTTTTTT :: 2.34 relative normalized absorbance
91 (dsDNA) DNA 1: AAAAAAAGTGGCCGCTAGTCAACTCAAAAA DNA 2: TTTTTGAGTTGACTAGCGGCCACTTTTTTT :: 2.25 relative normalized absorbance
137 (dsDNA) DNA 1: AAAAAAACTCTAGGTCAATATTATTCAAAA DNA 2: TTTTGAATAATATTGACCTAGAGTTTTTTT :: 2.3 relative normalized absorbance
222 (dsDNA) DNA 1: AAAAAAGGCGGTCGTAGTTGTGGGAGAAAA DNA 2: TTTTCTCCCACAACTACGACCGCCTTTTTT :: 2.35 relative normalized absorbance
271 (dsDNA) DNA 1: AAAAAACGTTGAACCTGGGCCTCAACAAAA DNA 2: TTTTGTTGAGGCCCAGGTTCAACGTTTTTT :: 2.33 relative normalized absorbance

Need binding signal of 239 (dsDNA) DNA 1: AAAAAAGTCGTTACACGTATGCGTGCAAAA DNA 2: TTTTGCACGCATACGTGTAACGACTTTTTT , thanks.
2.32 relative normalized absorbance

Need binding signal of 36 (dsDNA) DNA 1: AAAAAATTTGGTCTTCGTCCTCGCTTAAAA DNA 2: TTTTAAGCGAGGACGAAGACCAAATTTTTT , thanks.
2.17 relative normalized absorbance

Need binding signal of 173 (dsDNA) DNA 1: AAAAAATACATTTGACTTTGGGTTTCAAAA DNA 2: TTTTGAAACCCAAAGTCAAATGTATTTTTT , thanks.
2.31 relative normalized absorbance

Need binding signal of 195 (dsDNA) DNA 1: AAAAAATGGTCGTCGTACTCGTGGTCAAAA DNA 2: TTTTGACCACGAGTACGACGACCATTTTTT , thanks.
2.34 relative normalized absorbance

Data credit: paper PMC3795721
